System: SNB-75 CNS
assayRemarks: NCI-60 one-dose screen, 48 h
assaySetup: 10 µM unless noted
About 83,000 compounds went through this panel and 20% of them were active in at least one assay; those are over-represented in the sample as a whole. Active and inactive are the calls of the source. How the source made its calls: active means growth percent below 10; inactive means the rest.
Outcome codes: active, inactive

{"columns": ["compound", "classification"],
 "data": [
  ["CCOC(=S)SCc1ccc(Cl)cc1", "inactive"],
  ["Cc1ccc(C2CC3c4ccccc4C2C2CCCCN32)cc1 (stereo not given)", "inactive"],
  ["Cc1cc(OCc2ccc(C(F)(F)F)cc2)c2c(c1)C(=O)C=C(NCCN1CCCC1)C2=O", "inactive"],
  ["CCc1ccccc1NC(=O)c1sc2nc3c(cc2c1N)C(=O)CCC3", "active"],
  ["C=C(CN1CCN(c2cccc(C(F)(F)F)n2)CC1)c1ccc(C(=O)Nc2ccccc2N)cc1", "active"],
  ["Cc1ccc2c(c1)C(=O)/C(=C/c1ccc(OCC(=O)c3ccccc3)cc1)O2", "inactive"],
  ["CC/C=C\\C[C@H](O)C/C=C1/C(=O)C=C[C@@H]1C/C=C\\CCCC(=O)OC(C)C", "inactive"],
  ["O=C(Nc1ccc(F)cc1)Nc1ccc(CCO)cc1", "inactive"],
  ["Oc1ccc(Nc2nccc(-c3ccc4ccccc4c3)n2)cc1", "inactive"],
  ["O=C(Cc1ccccc1)c1ccc(Cl)cc1", "inactive"],
  ["CCN(CC)c1ccc(/C=C/C2=[N+](C)c3ccccc3C2(C)C)cc1", "inactive"],
  ["COc1ccc(C(=O)c2sc3nc4c(c(C(F)(F)F)c3c2N)CN(C(C)=O)CC4)cc1OC", "inactive"],
  ["CCCCCCCCCc1cc(CN2CCCCC2)c(O)c(CN2CCCCC2)c1", "inactive"],
  ["CCOC(=O)N1CCN(c2nc(Nc3cc(C)[nH]n3)c3ccccc3n2)CC1", "active"],
  ["CN(C)CCOc1ccc(-c2nc3ccc(-c4nc5ccc(N6CCN(C)CC6)cc5[nH]4)cc3[nH]2)cc1", "inactive"],
  ["CC(=O)C1=C(O)C=C2Oc3c(C(=O)/C=C/c4c(Cl)cccc4Cl)c(O)c(C)c(O)c3[C@]2(C)C1=O", "active"],
  ["CCOC(=O)c1nc(Nc2cc(C)[nH]n2)c2ccccc2n1", "inactive"],
  ["O=C(CO[N+](=O)[O-])Nc1ccc(C(=O)/C=C/c2ccc3c(c2)OCO3)cc1", "inactive"],
  ["CN(CC(=O)N(Cc1ccc(C2CCCCC2)cc1)c1ccc(C(=O)NO)cc1)S(=O)(=O)c1c(F)c(F)c(F)c(F)c1F", "inactive"],
  ["CCN(CC)CCC(=O)Nc1ccc(Cn2nnc3c2C(=O)c2nnn(Cc4ccc(NC(=O)CCN(CC)CC)cc4)c2C3=O)cc1", "active"]
]}
